src = patent US6362369B1

- Tested on: diamondback moth (Plutella xylostella)
- test name: Insecticidal effect on diamondback moth (Test Example 1)
- Assay type: in vivo
- measurement conditions: diamondback moth; mortality judged by criterion of Test Example 1
measured quantity: Insecticidal effect, Test Example 1

{"molecule": "Cc1cc(OC(F)(F)C(F)F)ccc1NC(=O)c1cccc(Cl)c1C(=O)NC(C)(C)C", "measured quantity": "Insecticidal effect, Test Example 1", "value reported": "A (100)"}
{"molecule": "Cc1cc(C(F)(F)C(F)(F)F)ccc1NC(=O)c1cccc(Cl)c1C(=O)NCC(C)O (centres unmarked)", "measured quantity": "Insecticidal effect, Test Example 1", "value reported": "A (100)"}
{"molecule": "Cc1cc(C(F)(F)C(F)(F)F)ccc1NC(=O)c1cccc(I)c1C(=O)N1CCC(C)CC1", "measured quantity": "Insecticidal effect, Test Example 1", "value reported": "A (100)"}
{"molecule": "Cc1cc(OC(F)(F)F)ccc1NC(=O)c1ccc(F)c(F)c1C(=O)NC(C)(C)C", "measured quantity": "Insecticidal effect, Test Example 1", "value reported": "A (100)"}
{"molecule": "CC(C)NC(=O)c1c(Cl)cccc1C(=O)Nc1ccc2c(c1)OC(F)(F)O2", "measured quantity": "Insecticidal effect, Test Example 1", "value reported": "A (100)"}
{"molecule": "CCCNC(=O)c1c(I)cccc1C(=O)Nc1ccc(C(F)(F)C(F)(F)F)cc1C", "measured quantity": "Insecticidal effect, Test Example 1", "value reported": "A (100)"}
{"molecule": "CCN(CC)C(=O)c1c(C(=O)Nc2ccc(OC(F)(F)C(F)F)cc2C)cccc1[N+](=O)[O-]", "measured quantity": "Insecticidal effect, Test Example 1", "value reported": "A (100)"}
{"molecule": "CC(C)(C)NC(=O)c1c(I)cccc1C(=O)Nc1ccc2oc(-c3ccc(C(F)(F)F)cc3)nc2c1", "measured quantity": "Insecticidal effect, Test Example 1", "value reported": "A (100)"}

###

- Tested on: rice leafroller (Cnaphalocrocis medinalis)
- test name: Insecticidal effect on rice leafroller (Test Example 3)
- Format: in vivo
- measurement conditions: 500 ppm; rice lamina immersed; third-instar larvae of rice leafroller; four days after inoculation; 25° C., humidity 70%

{"compound": "Cc1cc(Br)ccc1NC(=O)c1c(I)cccc1C(=O)NC(C)C", "test target": "rice leafroller (Cnaphalocrocis medinalis)", "Insecticidal effect, Test Example 3": "D (79-50)"}
{"compound": "CCNC(=O)c1c(Cl)cccc1C(=O)Nc1ccc(OC(F)F)cc1C", "test target": "rice leafroller (Cnaphalocrocis medinalis)", "Insecticidal effect, Test Example 3": "A (100)"}
{"compound": "CC(C)NC(=O)c1c(I)cccc1C(=O)Nc1ccc(SC(F)F)cc1", "test target": "rice leafroller (Cnaphalocrocis medinalis)", "Insecticidal effect, Test Example 3": "A (100)"}
{"compound": "Cc1cc(OC(F)(F)C(F)Cl)ccc1NC(=O)c1cccc(I)c1C(=O)NC(C)C (stereo not shown)", "test target": "rice leafroller (Cnaphalocrocis medinalis)", "Insecticidal effect, Test Example 3": "A (100)"}
{"compound": "CC(C)NC(=O)c1c(Br)cccc1C(=O)Nc1ccc(OC(F)(F)F)cc1Br", "test target": "rice leafroller (Cnaphalocrocis medinalis)", "Insecticidal effect, Test Example 3": "A (100)"}
{"compound": "Cc1cc(OC(F)(F)C(F)(Cl)Cl)ccc1NC(=O)c1c(Cl)cccc1C(=O)NC(C)C", "test target": "rice leafroller (Cnaphalocrocis medinalis)", "Insecticidal effect, Test Example 3": "A (100)"}
{"compound": "Cc1cc(C(F)(C(F)(F)F)C(F)(F)F)ccc1NC(=O)c1cccc(I)c1C(=O)NC(C)C", "test target": "rice leafroller (Cnaphalocrocis medinalis)", "Insecticidal effect, Test Example 3": "A (100)"}
{"compound": "Cc1cc(OC(F)(F)Br)ccc1NC(=O)c1cccc(Br)c1C(=O)NC(C)C", "test target": "rice leafroller (Cnaphalocrocis medinalis)", "Insecticidal effect, Test Example 3": "A (100)"}
{"compound": "Cc1cc(OC(F)(F)C(F)(Br)C(F)(F)F)ccc1NC(=O)c1c(Cl)cccc1C(=O)NC(C)C (stereo not shown)", "test target": "rice leafroller (Cnaphalocrocis medinalis)", "Insecticidal effect, Test Example 3": "B (99-90)"}
{"compound": "CCNC(=O)c1c(C(=O)Nc2ccc(OC(F)F)cc2C)cccc1[N+](=O)[O-]", "test target": "rice leafroller (Cnaphalocrocis medinalis)", "Insecticidal effect, Test Example 3": "C (89-80)"}
{"compound": "Cc1cc(OC(F)F)ccc1NC(=O)c1c(Cl)cccc1C(=O)NC(C)C", "test target": "rice leafroller (Cnaphalocrocis medinalis)", "Insecticidal effect, Test Example 3": "A (100)"}
{"compound": "Cc1cc(Br)ccc1NC(=O)c1c(Br)cccc1C(=O)NC(C)C", "test target": "rice leafroller (Cnaphalocrocis medinalis)", "Insecticidal effect, Test Example 3": "D (79-50)"}
{"compound": "CSc1ccc(NC(=O)c2cccc(Br)c2C(=O)NC(C)C)c(C)c1", "test target": "rice leafroller (Cnaphalocrocis medinalis)", "Insecticidal effect, Test Example 3": "A (100)"}
{"compound": "Cc1cc(I)ccc1NC(=O)c1cccc(Cl)c1C(=O)NC(C)C", "test target": "rice leafroller (Cnaphalocrocis medinalis)", "Insecticidal effect, Test Example 3": "A (100)"}
{"compound": "Cc1c(NC(=O)c2ccccc2C(=O)NC(C)C)cccc1OC(F)(F)C(F)Cl (stereo not shown)", "test target": "rice leafroller (Cnaphalocrocis medinalis)", "Insecticidal effect, Test Example 3": "A (100)"}
{"compound": "Cc1cc(OC(F)(F)C(F)OC(F)(F)F)ccc1NC(=O)c1ccccc1C(=O)NC(C)C (stereo not shown)", "test target": "rice leafroller (Cnaphalocrocis medinalis)", "Insecticidal effect, Test Example 3": "A (100)"}
{"compound": "CC(C)NC(=O)c1cccc(Cl)c1C(=O)Nc1ccc(C(C)(C)C)cc1", "test target": "rice leafroller (Cnaphalocrocis medinalis)", "Insecticidal effect, Test Example 3": "D (79-50)"}
{"compound": "CC(C)NC(=O)c1cccc(Cl)c1C(=O)Nc1ccc(OC(F)(F)C(F)OC(F)(F)C(F)(F)C(F)(F)F)cc1 (stereo not shown)", "test target": "rice leafroller (Cnaphalocrocis medinalis)", "Insecticidal effect, Test Example 3": "A (100)"}
{"compound": "Cc1c(Cl)ccc(NC(=O)c2cccc(I)c2C(=O)NC(C)C)c1C", "test target": "rice leafroller (Cnaphalocrocis medinalis)", "Insecticidal effect, Test Example 3": "A (100)"}
{"compound": "Cc1cc(Cl)ccc1NC(=O)c1c(Cl)cccc1C(=O)NC(C)C", "test target": "rice leafroller (Cnaphalocrocis medinalis)", "Insecticidal effect, Test Example 3": "A (100)"}
{"compound": "CC(C)NC(=O)c1c(I)cccc1C(=O)Nc1ccc(OC(F)(F)C(F)OC(F)(F)F)cc1 (stereo not shown)", "test target": "rice leafroller (Cnaphalocrocis medinalis)", "Insecticidal effect, Test Example 3": "A (100)"}
{"compound": "Cc1ccccc1NC(=O)c1ccccc1C(=O)NC(C)C", "test target": "rice leafroller (Cnaphalocrocis medinalis)", "Insecticidal effect, Test Example 3": "D (79-50)"}
{"compound": "CC(C)NC(=O)c1ccccc1C(=O)Nc1cccc(C(F)(F)F)c1", "test target": "rice leafroller (Cnaphalocrocis medinalis)", "Insecticidal effect, Test Example 3": "D (79-50)"}
{"compound": "CC(C)NC(=O)c1c(Cl)cccc1C(=O)Nc1cccc(Cl)c1Cl", "test target": "rice leafroller (Cnaphalocrocis medinalis)", "Insecticidal effect, Test Example 3": "B (99-90)"}
{"compound": "Cc1cc(Oc2ccc(C(F)(F)F)cn2)ccc1NC(=O)c1cccc(Br)c1C(=O)NC(C)C", "test target": "rice leafroller (Cnaphalocrocis medinalis)", "Insecticidal effect, Test Example 3": "A (100)"}
{"compound": "Cc1cc(C(F)(F)C(F)(F)C(F)(F)F)ccc1NC(=O)c1cccc(Cl)c1C(=O)NC(C)C", "test target": "rice leafroller (Cnaphalocrocis medinalis)", "Insecticidal effect, Test Example 3": "A (100)"}
{"compound": "CC(C)NC(=O)c1cccc(I)c1C(=O)Nc1ccc(I)cc1", "test target": "rice leafroller (Cnaphalocrocis medinalis)", "Insecticidal effect, Test Example 3": "C (89-80)"}
{"compound": "CC(C)NC(=O)c1cccc(Cl)c1C(=O)Nc1ccc(C(F)(C(F)(F)F)C(F)(F)F)cc1", "test target": "rice leafroller (Cnaphalocrocis medinalis)", "Insecticidal effect, Test Example 3": "A (100)"}
{"compound": "CC(C)NC(=O)c1c(I)cccc1C(=O)Nc1cccc(C(F)(F)F)c1", "test target": "rice leafroller (Cnaphalocrocis medinalis)", "Insecticidal effect, Test Example 3": "A (100)"}
{"compound": "CC(C)NC(=O)c1ccc(Cl)cc1C(=O)Nc1ccc(Cl)cc1Cl", "test target": "rice leafroller (Cnaphalocrocis medinalis)", "Insecticidal effect, Test Example 3": "D (79-50)"}
{"compound": "CC(C)NC(=O)c1c(Cl)cccc1C(=O)Nc1ccc(C(F)(C(F)(F)F)C(F)(F)F)cc1", "test target": "rice leafroller (Cnaphalocrocis medinalis)", "Insecticidal effect, Test Example 3": "A (100)"}
{"compound": "CC(C)NC(=O)c1cccc(Cl)c1C(=O)Nc1ccc(F)cc1Cl", "test target": "rice leafroller (Cnaphalocrocis medinalis)", "Insecticidal effect, Test Example 3": "A (100)"}
{"compound": "Cc1ccc(Cl)cc1NC(=O)c1c(Br)cccc1C(=O)NC(C)C", "test target": "rice leafroller (Cnaphalocrocis medinalis)", "Insecticidal effect, Test Example 3": "D (79-50)"}
{"compound": "CC(C)NC(=O)c1c(Cl)cccc1C(=O)Nc1ccc(OC(F)(F)C(F)OC(F)(F)C(F)(F)C(F)(F)F)cc1 (stereo not shown)", "test target": "rice leafroller (Cnaphalocrocis medinalis)", "Insecticidal effect, Test Example 3": "A (100)"}
